# assayTarget: P. falciparum apicoplast DNA polymerase (Pf-apPOL) (Plasmodium falciparum, UniProt Q8ILY1)
# Sequence (Q8ILY1 entry or part of it): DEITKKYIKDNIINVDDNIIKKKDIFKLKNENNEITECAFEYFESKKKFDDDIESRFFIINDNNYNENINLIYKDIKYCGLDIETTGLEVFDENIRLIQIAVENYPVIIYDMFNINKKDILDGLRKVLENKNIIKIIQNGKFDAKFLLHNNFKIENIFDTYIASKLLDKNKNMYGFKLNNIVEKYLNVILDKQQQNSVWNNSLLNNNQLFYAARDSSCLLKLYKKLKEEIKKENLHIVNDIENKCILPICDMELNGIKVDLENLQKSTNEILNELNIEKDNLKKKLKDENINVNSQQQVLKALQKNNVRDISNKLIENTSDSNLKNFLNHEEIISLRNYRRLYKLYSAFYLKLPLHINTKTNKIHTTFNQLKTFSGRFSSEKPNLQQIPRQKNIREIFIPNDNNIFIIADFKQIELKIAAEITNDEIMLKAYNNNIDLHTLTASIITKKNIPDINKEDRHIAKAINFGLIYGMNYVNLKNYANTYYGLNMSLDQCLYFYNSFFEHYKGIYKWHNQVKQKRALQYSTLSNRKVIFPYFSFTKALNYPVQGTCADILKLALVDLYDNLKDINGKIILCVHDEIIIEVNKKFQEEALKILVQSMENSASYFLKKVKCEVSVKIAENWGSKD
# assayRemarks: Fluorescence-based high-throughput DNA polymerase assay (molecular beacon), primary screen and dose-response;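 also: test concentration in µM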
# Assay type: biochemical
# conditionParameters: DRC-2, 90', concentration 40
Each record here notes measured % inhibition ApPOL 90'.

{"columns": ["molecule", "assayTarget", "% inhibition ApPOL 90' / %"],
 "data": [
  ["O=C(O)CC1=NN(c2cccc([N+](=O)[O-])c2)C(=O)C1", "P. falciparum apicoplast DNA polymerase (Pf-apPOL) (Plasmodium falciparum, UniProt Q8ILY1)", 48],
  ["COc1cc(/C=C2\\S/C(=N/C(C)=O)NC2=O)cc(Br)c1OCC(=O)O", "P. falciparum apicoplast DNA polymerase (Pf-apPOL) (Plasmodium falciparum, UniProt Q8ILY1)", 41],
  ["O=C(O)C(=O)Nc1nc(-c2ccc3c(c2)OCCO3)cs1", "P. falciparum apicoplast DNA polymerase (Pf-apPOL) (Plasmodium falciparum, UniProt Q8ILY1)", 34],
  ["Cc1nn(CC(=O)NCCSCc2ccco2)c(C)c1Br", "P. falciparum apicoplast DNA polymerase (Pf-apPOL) (Plasmodium falciparum, UniProt Q8ILY1)", 39],
  ["CSCCC(C)(O)CNC(=O)C1CC1 (centres unmarked)", "P. falciparum apicoplast DNA polymerase (Pf-apPOL) (Plasmodium falciparum, UniProt Q8ILY1)", 42]
]}
